Origin of measurements: patent US6821980B1

- Tested System: purified DHFR of strain Sp1/1 of Streptococcus pneumoniae (Streptococcus pneumoniae serotype 4)
- Type: biochemical
- Condition Parameters: Table 2; IC50 against purified DHFR of strain Sp1/1
Result Type: log10 of IC50 (log10 of the value in nM)

Smiles Text	Reading
CCOc1cc(Cc2cnc(N)nc2N)cc(OS(=O)(=O)C(C)C)c1-c1ccc(N)c(F)c1	1.15
CCOc1cc(Cc2cnc(N)nc2N)cc(OCC)c1-c1ccc(N)cc1	1.60
CCOc1cc(Cc2cnc(N)nc2N)cc(OCC)c1-c1ccc(CN2CCOCC2)c(F)c1	1.76
CCOc1cc(Cc2cnc(N)nc2N)cc(OCC2(CC#N)CC2)c1-c1cccc(N)c1	1.56
CCOc1cc(Cc2cnc(N)nc2N)cc(OS(=O)(=O)CC)c1-c1cccc(N)c1	1.28
CCOc1cc(Cc2cnc(N)nc2N)cc(OS(=O)(=O)N(C)C)c1-c1ccc(N)c(C#N)c1	1.38
CCOc1cc(Cc2cnc(N)nc2N)cc(OS(=O)(=O)N(C)CC)c1-c1ccc(NC)cc1	0.28
CCOc1cc(Cc2cnc(N)nc2N)cc(OCC2(COC)CC2)c1-c1cccc(N)c1	1.68

----------
- Tested System: purified DHFR of strain Sp1/1 of Streptococcus pneumoniae (Streptococcus pneumoniae serotype 4)
- Sequence (Q54801 1-168 I100L): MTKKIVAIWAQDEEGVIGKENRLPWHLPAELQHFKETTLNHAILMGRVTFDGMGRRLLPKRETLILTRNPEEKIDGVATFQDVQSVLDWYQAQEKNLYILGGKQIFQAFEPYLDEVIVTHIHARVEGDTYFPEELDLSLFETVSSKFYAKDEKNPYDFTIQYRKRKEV
- Assay type: biochemical
- Condition Parameters: Table 2; IC50 against purified DHFR of strain Sp1/1
pIC50: −log10 of the molar value.
Result Type: pIC50

Molecule	Reading
CCOc1cc(Cc2cnc(N)nc2N)cc(OC2CCC2)c1-c1ccc(O)cc1 [Example 08-k]	7.37
CCOc1cc(Cc2cnc(N)nc2N)cc(OCC)c1-c1ccc(N)c(F)c1 [Example 04-r]	7.07
CCOc1cc(Cc2cnc(N)nc2N)cc(OCC)c1-c1ccc2[nH]ccc2c1 [Example 02-d]	7.46
CCOc1cc(Cc2cnc(N)nc2N)cc(OCC)c1-c1ccc(S(N)(=O)=O)cc1 [Example 04-o]	7.22
CCOc1cc(Cc2cnc(N)nc2N)cc(OS(=O)(=O)N(C)C)c1-c1ccc(N)c(C)c1 [Example 27-a]	7.66
CCOc1cc(Cc2cnc(N)nc2N)cc(OS(=O)(=O)CC(C)C)c1-c1ccc(O)cc1 [Example 15-f]	8.17
CCOc1cc(Cc2cnc(N)nc2N)cc(OCC)c1-c1ccc2ncccc2c1 [Example 04-m]	7.14
CCOc1cc(Cc2cnc(N)nc2N)cc(OS(=O)(=O)C(C)CC)c1-c1ccc(NCCO)cc1 (centres unmarked) [Example 35-f]	8.07

----------
- Tested System: purified DHFR of strain 157/4696 of Staphylococcus aureus (Staphylococcus aureus, UniProt P13955)
- Sequence (P13955 whole entry): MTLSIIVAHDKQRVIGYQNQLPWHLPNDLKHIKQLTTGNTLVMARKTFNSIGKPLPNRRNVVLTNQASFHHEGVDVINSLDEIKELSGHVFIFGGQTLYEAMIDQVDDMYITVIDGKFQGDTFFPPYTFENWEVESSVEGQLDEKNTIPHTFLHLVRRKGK
- Assay Text: biochemical
pIC50: −log10 of the molar value.

Compound	pIC50
CCOc1cc(Cc2cnc(N)nc2N)cc(OCC2CC2)c1-c1ccc(OC)c(N)c1	5.74
CCOc1cc(Cc2cnc(N)nc2N)cc(OCC2(C#N)CC2)c1-c1ccc(O)cc1	6.02
CCOc1cc(Cc2cnc(N)nc2N)cc(OCC)c1-c1cccc(O)c1	5.51
CCOc1cc(Cc2cnc(N)nc2N)cc(OS(=O)(=O)N(C)C)c1-c1ccc(N)c(C)c1	6.66
CCOc1cc(Cc2cnc(N)nc2N)cc(OS(=O)(=O)C(C)CC)c1-c1ccc(N)c(C)c1 (centres unmarked) [Example 35e]	7.21
CCOc1cc(Cc2cnc(N)nc2N)cc(OS(=O)(=O)N(C)C)c1-c1ccc(O)cc1	6.82
CCOc1cc(Cc2cnc(N)nc2N)cc(OS(=O)(=O)CC)c1-c1ccc2c(c1)OCO2	6.43
CCOc1cc(Cc2cnc(N)nc2N)cc(OCC(C)C)c1-c1ccc(O)cc1	5.92

----------
- Tested System: purified DHFR of strain 157/4696 of Staphylococcus aureus (Staphylococcus aureus)
- Assay Text: biochemical
pIC50: −log10 of the molar value.
If the reported pIC50 equals or exceeds 6, assign 1. If not, assign 0.

Compound	Group
CCOc1cc(Cc2cnc(N)nc2N)cc(OCC)c1-c1ccc(C#N)cc1 [Example 04-a]	0
CCOc1cc(Cc2cnc(N)nc2N)cc(OCC)c1-c1ccc([S+](C)[O-])cc1 (racemic) [Example 02-j]	0
CCOc1cc(Cc2cnc(N)nc2N)cc(OCC)c1-c1ccc(COCC(=O)N2CCOCC2)s1 [Example 03-a]	0
CCOc1cc(Cc2cnc(N)nc2N)cc(OCC)c1-c1ccc(C=O)cc1 [Example 02-ag]	0
CCCOc1cc(Cc2cnc(N)nc2N)cc(OCC)c1-c1cccc(O)c1 [Example 53-]	0
CCOc1cc(Cc2cnc(N)nc2N)cc(OS(=O)(=O)N(C)CC)c1-c1ccc(N)c(C)c1 [Example 27-b]	1
CCOc1cc(Cc2cnc(N)nc2N)cc(OCC)c1-c1ccc(CN2CCOCC2)cc1 [Example 02-w]	0
CCOc1cc(Cc2cnc(N)nc2N)cc(OS(=O)(=O)N(C)C)c1-c1ccc(OC)cc1 [Example 21-]	1
CCOc1cc(Cc2cnc(N)nc2N)cc(OS(=O)(=O)CC(C)C)c1-c1ccc(NCCO)cc1 [Example 36-e]	1
CCOc1cc(Cc2cnc(N)nc2N)cc(OCC2(CC#N)CC2)c1-c1ccc(O)cc1 [Example 08-c]	0
CCOc1cc(Cc2cnc(N)nc2N)cc(OS(=O)(=O)N(C)C)c1-c1ccc(OC(C)=O)cc1 [Example 62-]	1
CCOc1cc(Cc2cnc(N)nc2N)cc(OCC2CC2)c1-c1ccc(N)c(C)c1 [Example 11-a]	0
CCOc1cc(Cc2cnc(N)nc2N)cc(OCCC2CCCCO2)c1-c1cccc(N)c1 (racemic) [Example 07-h]	0
CCOc1cc(Cc2cnc(N)nc2N)cc(OCC)c1-c1ccc2ncccc2c1 [Example 04-m]	0
CCOc1cc(Cc2cnc(N)nc2N)cc(OCC)c1-c1ccc(S(C)(=O)=O)cc1 [Example 02-i]	0
CCOc1cc(Cc2cnc(N)nc2N)cc(OS(C)(=O)=O)c1-c1ccc2c(c1)OCO2 [Example 17-a]	1
CCOc1cc(Cc2cnc(N)nc2N)cc(OS(=O)(=O)N(C)CC)c1-c1ccc(O)cc1 [Example 20-g]	1
CCOc1cc(Cc2cnc(N)nc2N)cc(OCC)c1-c1ccc(OC)c(COC)c1 [Example 02-aa]	0
CCOc1cc(Cc2cnc(N)nc2N)cc(OS(=O)(=O)N(C)CC)c1-c1cccc(N)c1 [Example 19-f]	1
CCOc1cc(Cc2cnc(N)nc2N)cc(OCC2CC2)c1-c1ccc(OS(C)(=O)=O)cc1 [Example 57-]	0
CCOc1cc(Cc2cnc(N)nc2N)cc(OCC)c1-c1cccc(NC(C)=O)c1 [Example 05-c]	0
CCOc1cc(Cc2cnc(N)nc2N)cc(OCC)c1-c1cccc(OCCOC)c1 [Example 50-]	0
C=C(C)COc1cc(Cc2cnc(N)nc2N)cc(OCC)c1-c1ccc2c(c1)OCO2 [Example 10-f]	0
CCOc1cc(Cc2cnc(N)nc2N)cc(OS(=O)(=O)CC2CCCO2)c1-c1cccc(N)c1 (stereo not drawn) [Example 42-a]	1
CCOc1cc(Cc2cnc(N)nc2N)cc(OS(=O)(=O)N(C)C2CC2)c1-c1cccc(N)c1 [Example 19-g]	1
CCOc1cc(Cc2cnc(N)nc2N)cc(OS(=O)(=O)C2CCOCC2)c1-c1ccc(N)c(F)c1 [Example 41-b]	1
CCOc1cc(Cc2cnc(N)nc2N)cc(OS(=O)(=O)C2CCOCC2)c1-c1ccc(N)c(C)c1 [Example 41-a]	1

----------
Listed here: items and their measured MIC.
- Tested on: Staphylococcus aureus 101
- Assay Text: MIC against Staphylococcus aureus 101
- Assay type: cell-based
- Condition Parameters: Table 2; Staphylococcus aureus 101, MRSA- and trimethoprim-resistant; clinical isolate; read-out: MIC Sa101

Molecule	Unit Of Measurement	MIC
CCOc1cc(Cc2cnc(N)nc2N)cc(OCC2CC2)c1-c1ccc(OC)cc1	µg/mL	4
CCOc1cc(Cc2cnc(N)nc2N)cc(OCC)c1-c1ccc(CO)s1	µg/mL	4
CCOc1cc(Cc2cnc(N)nc2N)cc(OCC)c1-c1cc(C)cc(N)c1	µg/mL	8
CCOc1cc(Cc2cnc(N)nc2N)cc(OCC(C)C)c1-c1ccc(OC)cc1	µg/mL	4
CCOc1cc(Cc2cnc(N)nc2N)cc(OS(=O)(=O)C(C)CC)c1-c1ccc(CN2CCOCC2)c(N)c1 (centres unmarked)	µg/mL	2
CCOc1cc(Cc2cnc(N)nc2N)cc(OC2CCCC2)c1-c1cccc(N)c1	µg/mL	4
CCOc1cc(Cc2cnc(N)nc2N)cc(OCC)c1-c1ccc(CNCCF)cc1	µg/mL	8
CCOc1cc(Cc2cnc(N)nc2N)cc(OS(C)(=O)=O)c1-c1ccc(O)cc1	µg/mL	8
